system: Saccharomyces cerevisiae; test: Inhibition of recombinant His-tagged yeast GYS2P expressed in Escherichia coli BL21(DE3) cells assessed as enzyme activity at 300 uM using UDPG as substrate in presence of G-6-P by 14C-glucose incorporation assay relative to control; design: scale not given: the % may be the effect or the level left
Metric: Activity (%)
Express it in %; write the number only.

1. COc1ccc(-c2ccc(CCC(=O)O)n2-c2ccc(O)cc2)cc1
34.5

Documented Activity of Cc1[nH]nc(-c2ccc(O)c(O)c2O)c1-c1ccc(Cl)cc1 : 3.52

Documented Activity of O=C(O)CCc1ccc(-c2ccccc2)n1-c1ccc(O)cc1 : 40.1

Documented Activity of Cc1ccc(-c2ccccc2)n1-c1ccc(O)cc1 : 79.7

====

target: UniProt P13807; assay: Inhibition of glycogen synthase in human HEK293 cell lysates overexpressing mouse PTG at 100 uM using 0.2 mM UDPG as substrate in presence of 1 mM G-6-P by 14C-glucose incorporation assay relative to control; format: subcellular; details: Lysate
Sequence (P13807 whole entry): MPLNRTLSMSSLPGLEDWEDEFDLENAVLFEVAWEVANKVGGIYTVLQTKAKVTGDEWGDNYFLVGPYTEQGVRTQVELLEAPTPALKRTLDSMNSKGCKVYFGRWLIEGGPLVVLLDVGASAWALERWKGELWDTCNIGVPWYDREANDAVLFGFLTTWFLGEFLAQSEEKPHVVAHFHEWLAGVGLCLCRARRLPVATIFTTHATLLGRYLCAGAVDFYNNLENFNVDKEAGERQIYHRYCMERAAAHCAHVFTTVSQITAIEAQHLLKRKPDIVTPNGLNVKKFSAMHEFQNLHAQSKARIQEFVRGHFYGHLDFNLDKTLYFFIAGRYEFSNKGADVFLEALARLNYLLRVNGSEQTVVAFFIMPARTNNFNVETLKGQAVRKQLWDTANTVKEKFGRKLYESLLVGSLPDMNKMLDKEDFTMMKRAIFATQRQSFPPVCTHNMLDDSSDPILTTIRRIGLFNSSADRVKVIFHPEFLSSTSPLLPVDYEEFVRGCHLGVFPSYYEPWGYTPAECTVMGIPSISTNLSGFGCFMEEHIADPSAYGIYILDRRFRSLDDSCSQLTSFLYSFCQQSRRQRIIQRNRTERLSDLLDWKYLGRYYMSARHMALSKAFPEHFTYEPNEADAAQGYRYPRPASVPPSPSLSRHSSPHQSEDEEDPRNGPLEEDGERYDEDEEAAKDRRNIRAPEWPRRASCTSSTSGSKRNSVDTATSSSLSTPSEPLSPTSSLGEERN
compounds and their reported inhibition

1) Oc1ccc(-c2n[nH]c(C(F)(F)F)c2-c2ccc(F)cc2)c(O)c1O
> 30%
2) Oc1ccc(-c2c(-c3ccc(O)c(O)c3O)n[nH]c2C(F)(F)F)cc1
100%

Documented inhibition of Oc1ccc(-c2n[nH]c(C(F)(F)F)c2-c2ccc(Cl)cc2)c(O)c1O : > 30%

Documented inhibition of O=[N+]([O-])c1ccc(-c2c(-c3ccc(O)c(O)c3O)n[nH]c2C(F)(F)F)cc1 : > 30%

====

species: Homo sapiens; test: Inhibition of C-terminal 6His-tagged human GYS1 delta634S8,11N mutant assessed as enzyme activity at 20 uM using UDPG as substrate in presence of 0.4 mM G-6-P by 14C-glucose incorporation assay relative to control; parameters: scale not given: the % may be the effect or the level left
compounds and their reported Activity
Please answer using the number first and the unit second.

1. Oc1ccc(-c2n[nH]c(C(F)(F)F)c2-c2ccc(OC(F)(F)F)cc2)c(O)c1O
40.3%
2. Oc1ccc(-c2c(-c3cc(F)c(O)cc3O)n[nH]c2C(F)(F)F)cc1
74.2%
3. Oc1ccc(-c2n[nH]c(C(F)(F)F)c2-c2ccc(F)cc2)c(O)c1O
11.7%

Documented Activity of Cc1[nH]nc(-c2ccc(O)c(O)c2O)c1-c1ccc(F)cc1 : 89%

Documented Activity of Oc1ccc(-c2n[nH]c(C(F)(F)F)c2-c2ccc(Cl)c(Cl)c2)c(O)c1O : 5.28%

====

system: Saccharomyces cerevisiae; experiment: Inhibition of recombinant His-tagged yeast GYS2P expressed in Escherichia coli BL21(DE3) cells assessed as enzyme activity at 20 uM using UDPG as substrate in presence of G-6-P by 14C-glucose incorporation assay relative to control; parameters: scale not given: the % may be the effect or the level left
Metric: Activity (%)
Express it in %; write the number only.

Worked cases, answers included:
1. O=[N+]([O-])c1ccc(-c2c(-c3ccc(O)c(O)c3O)n[nH]c2C(F)(F)F)cc1
18.8
2. COC(=O)c1ccc(-c2c(-c3ccc(O)c(O)c3O)n[nH]c2C)cc1
90.6
3. Oc1ccc(-c2n[nH]c(C(F)(F)F)c2-c2ccc(Cl)cc2)c(O)c1O
51.5
4. Oc1ccc(-c2c(-c3cc(F)c(O)cc3O)n[nH]c2C(F)(F)F)cc1
65.2
5. O=[N+]([O-])c1ccc(-c2c[nH]nc2-c2ccc(O)c(O)c2O)cc1
78.4

Documented Activity of Oc1ccc(-c2n[nH]c(C(F)(F)F)c2-c2ccccc2)c(O)c1O : 51.8

Documented Activity of Oc1ccc(-c2c(-c3ccc(O)c(O)c3O)n[nH]c2C(F)(F)F)cc1 : 0.97

Documented Activity of Oc1ccc(-c2n[nH]c(C(F)(F)F)c2-c2ccc(Cl)c(Cl)c2)c(O)c1O : 47.4

Documented Activity of Oc1ccc(-c2c[nH]nc2-c2ccc(O)c(O)c2O)cc1 : 6.21

Documented Activity of O=[N+]([O-])c1ccc(-c2c(-c3ccc(O)cc3O)n[nH]c2C(F)(F)F)cc1 : 82.3

Documented Activity of Oc1ccc(-c2n[nH]c(C(F)(F)F)c2-c2ccc(OC(F)(F)F)cc2)c(O)c1O : 91.6

Documented Activity of N#Cc1ccc(-c2c(-c3ccc(O)c(O)c3O)n[nH]c2C(F)(F)F)cc1 : 51.2

Documented Activity of Oc1ccc(-c2n[nH]c(C(F)(F)F)c2-c2ccc(F)cc2)c(O)c1O : 45.7
